Biological target: T1, rat pancreatic islet (wild type) GIP-receptor stably expressed on CHO-K1 cells (rat, UniProt P43219 19-455)
T1 construct: whole, on cells; also called wtGIPR cells; wtGIP-R1 cells
T1 sequence (looked up): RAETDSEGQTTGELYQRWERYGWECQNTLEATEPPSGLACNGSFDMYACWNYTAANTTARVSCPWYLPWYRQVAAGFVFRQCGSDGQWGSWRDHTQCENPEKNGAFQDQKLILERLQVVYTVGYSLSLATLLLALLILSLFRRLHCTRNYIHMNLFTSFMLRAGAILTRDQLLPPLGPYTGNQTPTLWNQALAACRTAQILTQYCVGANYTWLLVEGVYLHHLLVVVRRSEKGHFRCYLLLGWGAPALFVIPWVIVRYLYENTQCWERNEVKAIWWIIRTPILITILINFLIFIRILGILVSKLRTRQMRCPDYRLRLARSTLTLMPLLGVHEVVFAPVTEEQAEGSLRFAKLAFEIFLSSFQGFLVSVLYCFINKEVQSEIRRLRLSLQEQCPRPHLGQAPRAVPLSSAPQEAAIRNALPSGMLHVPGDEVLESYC
Assay: competition with 125I-GIP on CHO-K1 cells transfected with rat GIP receptor
Ends that are not written are not given here.
VALUE TYPE: IC50 (nM)

# BINDER, UNIT SPEC, MEAS VALUE
measured = [
    ("YAEGTFEKEEKEKEEKEQQDFVNWLLAQK-NH2 (range 1-6;range 19-30; The expected mass 3574.0 fits the 11-residue linker as printed) [GIP(1-6)(EKEEKEKEEKE)(19-30)NH2]", "nM", 4270),
    ("YAEGTFISDYSIAMQQDFVNWLLAQK-NH2 (peptide, UniProt P09681 52-65, looked up, range 1-14;range 19-30; Core deletion, no linker (formula 6, D unused, truncated at residue 30)) [GIP(1-14)(19-30)NH2]", "nM", 1370),
    ("YAEGTFEKEKQQDFVNWLLAQK-NH2 (range 1-6;range 19-30) [GIP(1-6)(EKEK)(19-30)NH2]", "nM", 2090),
    ("YAEGTFISDYSIAMEKEKQQDFVNWLLAQK-NH2 (range 1-14;range 19-30) [GIP(1-14)(EKEK)(19-30)NH2]", "nM", 26),
    ("YAEGTFQQDFVNWLLAQK-NH2 (peptide, UniProt P09681 52-57, looked up, range 1-6;range 19-30; Core deletion, no linker (formula 5, C not used, truncated at residue 30)) [GIP(1-6)(19-30)NH2]", "nM", 2740),
    ("YAEGTFISDYSIAMAAAAQQDFVNWLLAQK-NH2 (range 1-14;range 19-30) [GIP(1-14)(AAAA)(19-30)NH2]", "nM", 66.3),
    ("YAEGTFAAAAQQDFVNWLLAQK-NH2 (range 1-6;range 19-30; also called GIP(l-6)(AAAA)(19-30)NH2) [GIP(1-6)(AAAA)(19-30)NH2]", "nM", 2410),
]

// data source = patent US20050137135A1
